study-target: T1, human GIP receptor (human, UniProt P48546 22-466)
T1 sequence (looked up): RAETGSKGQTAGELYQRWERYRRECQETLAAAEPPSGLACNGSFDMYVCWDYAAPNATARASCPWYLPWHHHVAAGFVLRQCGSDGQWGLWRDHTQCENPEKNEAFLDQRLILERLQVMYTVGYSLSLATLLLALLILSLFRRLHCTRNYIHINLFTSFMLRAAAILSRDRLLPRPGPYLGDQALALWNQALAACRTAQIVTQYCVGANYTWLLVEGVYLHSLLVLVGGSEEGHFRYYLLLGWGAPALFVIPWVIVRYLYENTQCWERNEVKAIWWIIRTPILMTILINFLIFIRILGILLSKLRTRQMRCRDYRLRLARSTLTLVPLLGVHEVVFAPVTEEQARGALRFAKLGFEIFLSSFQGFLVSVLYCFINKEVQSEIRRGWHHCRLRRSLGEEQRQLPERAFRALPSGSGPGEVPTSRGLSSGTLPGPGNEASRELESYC
run-description: cell-based or functional assay
*1 amine or outer side, *2 acyl side, *3 side chain or, on linkers, in order; H or OH if unused. Where no end group is shown, it is not given here. Side-chain parts run from the residue outwards. [ ]: non-standard residue; d: D form. The star is where a group is joined. phenyl lactic acid = phenyl lactic acid at the N-terminus; C18 diacid = O=C(O)CCCCCCCCCCCCCCCCC(=O)*; C16 diacid = O=C(O)CCCCCCCCCCCCCCC(=O)*; γGlu = O=C(O)[C@H](CCC(=O)[*:2])N[*:1]; Glutaryl = O=C(CCCC(=O)[*:2])[*:1]; Nle = CCCC[C@H](N)C(=O)O; PEG = not defined here; AEEA = NCCOCCOCC(=O)O
test-readout: cAMP agonism % Emax (%)
Response body: numeric value in %, unit text excluded.

Ask: Supply reported cAMP agonism % Emax belonging to this binder: {phenyl lactic acid}-PGTFISDYSIAMDKIKQQDFVNWLLAQKPSSGAPPPSK(C16 diacid)-NH2 (not fully specified) [AT652]
Reply: 17

Ask: Given the binder [βGlu]GTFISDYSIA[Nle]DKIK(C16 diacid)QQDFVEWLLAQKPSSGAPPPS-OH [AT699] , write its reported cAMP agonism % Emax.
Reply: 0

Ask: For the binder TFISDYK([PEG-PEG-γGlu-C18 diacid])IAMDKIHQQDFVNWLLAGGPSSGAPPPS (not fully specified (C-terminus); reading uncertain) [AT602] , give its reported cAMP agonism % Emax.
Reply: 0

Ask: Identify measured cAMP agonism % Emax associated with EGTFISTYK([γGlu-C16 diacid])IALDKIHQQDFVEWLLAQKPSSGAPPPS-OH [AT647]
Reply: 0

Ask: Look up and state reported cAMP agonism % Emax for TFISDYK([γGlu-γGlu-C18])IAMDKIHQQDFVNWLLAQKGKKNDW-OH [AT561]
Reply: 0

Ask: Give reported cAMP agonism % Emax value for Glutaryl-GTFISDYSIA[Nle]DKIK([AEEA-AEEA-γGlu-C18 diacid])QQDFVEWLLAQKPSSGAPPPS-OH [AT702]
Reply: 0

Ask: Please give the documented cAMP agonism % Emax of TFISDYK([PEG-PEG-γGlu-C18 diacid])IAMDKIHQQDFVNWLLAQKPSSGAPPPS-NH2 (reading uncertain; also: 2xPEG: PEG unit not given here) [AT597]
Reply: 0

Ask: Give the reported cAMP agonism % Emax for this binder. [βGlu]GTFISDYSIA[Nle]DKIK([AEEA-AEEA-γGlu-C18 diacid])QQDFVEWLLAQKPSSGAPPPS-OH [AT701]
Reply: 13

Ask: Report measured cAMP agonism % Emax; entry is [βGlu]GTFISDYSIAMDKIK(C16 diacid)QQDFVNWLLAQKPSSGAPPPS-OH [AT676]
Reply: 0

Ask: Check the records and state cAMP agonism % Emax for EGTFISDYSIALDKIKQQDFVNWLLAQKPSSGAPPPS (βGlu at 3; Aib at 13; Nle at 14; K18: C16-diacid; C-term COOH) [AT703]
Reply: 0
